Target: PTGER2 (EP2) (Homo sapiens)
Sequence (P43116 whole entry): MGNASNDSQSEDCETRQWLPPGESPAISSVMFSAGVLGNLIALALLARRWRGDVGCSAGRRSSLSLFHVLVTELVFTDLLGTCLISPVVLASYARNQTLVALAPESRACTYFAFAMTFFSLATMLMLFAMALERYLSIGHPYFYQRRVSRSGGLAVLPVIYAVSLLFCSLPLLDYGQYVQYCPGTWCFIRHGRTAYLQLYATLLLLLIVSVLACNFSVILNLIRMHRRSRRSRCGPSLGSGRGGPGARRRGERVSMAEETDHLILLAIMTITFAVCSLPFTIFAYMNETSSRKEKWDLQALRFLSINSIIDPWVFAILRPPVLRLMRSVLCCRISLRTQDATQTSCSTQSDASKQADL
Assay: hEP2 b-arrestin assay (PathHunter HEK 293 PTGER2 b-arrestin cells)
Conditions: antagonistic activity, beta-arrestin assay; read-out: hEP2 b-arr IC50
measurementType: IC50
Record the result as a number with its unit.

# input molecule: CCOc1cc(-c2cc(NCCc3c(C)oc4c(C)cc(F)cc34)ncn2)ccc1C(=O)O [Example 69] ; wanted: its IC50
0.024 µM

# input molecule: CCOc1cc(-c2cc(NCCc3c(C)sc4c(C)ccc(F)c34)ncn2)ccc1OCC(=O)O [Example 118] ; wanted: its IC50
0.016 µM

# input molecule: CCCc1cc(-c2cc(NCCc3c(C)sc4c(C)cc(F)cc34)ncn2)ccc1C(N)=O [Example 206] ; wanted: its IC50
0.01 µM

# input molecule: CCOc1cc(-c2cc(NCCc3c(C)sc4c(OC)ccc(F)c34)ncn2)ccc1CC(=O)O [Example 105] ; wanted: its IC50
0.033 µM

# input molecule: Cc1[nH]c(-c2cc(NCCc3c(C)sc4c(C)cc(F)cc34)ncn2)cc1C(=O)O [Example 205] ; wanted: its IC50
0.074 µM

# input molecule: CCOc1cc(-c2cc(NCCc3c(C)sc4c(C)cc(F)cc34)ncn2)ccc1C1(C(=O)O)CC1 [Example 215] ; wanted: its IC50
0.143 µM

# input molecule: CCOc1cc(-c2cc(NCCc3c(C)oc4c(Cl)cccc34)ncn2)ccc1OCC(=O)O [Example 120] ; wanted: its IC50
0.029 µM

# input molecule: CCSc1cc(-c2cc(NCCc3c(C)sc4c(C)cc(F)cc34)ncn2)ccc1C(=O)O [Example 179] ; wanted: its IC50
0.008 µM

----------
Target: PTGER2 (EP2) (Homo sapiens)
Experiment: hEP2 b-arrestin assay (PathHunter HEK 293 PTGER2 b-arrestin cells)
Settings: antagonistic activity, beta-arrestin assay; read-out: hEP2 b-arr IC50
measurementType: pIC50
The value called pIC50 is obtained by taking minus log10 of the concentration in mol/L.

# input compound: CCOc1cc(-c2cc(NCCc3c(C)sc4c(C)cc(F)cc34)ncn2)ccc1NC=O [Example 191] ; wanted: its pIC50
7.35

# input compound: CCOc1cc(-c2cc(NCCc3c(C#N)sc4c(C)cc(F)cc34)ncn2)ccc1C(=O)O [Example 53] ; wanted: its pIC50
8.05

# input compound: Cc1cc(F)cc2c(CCNc3cc(-c4ccc(CC(=O)O)c(OC(C)C)c4)ncn3)c(C#N)sc12 [Example 171] ; wanted: its pIC50
7.23

# input compound: CCCSc1cc(-c2cc(NCCc3c(C)oc4ccccc34)ncn2)ccc1C(=O)O [Example 89] ; wanted: its pIC50
8.00

# input compound: Cc1sc2c(C)cc(F)cc2c1CCNc1cc(-c2ccc(CC(=O)O)c(CC(C)C)c2)ncn1 [Example 182] ; wanted: its pIC50
7.39

# input compound: Cc1sc2c(C)cccc2c1CCNc1cc(-c2ccc(C(=O)O)c(SC3COC3)c2)ncn1 [Example 131] ; wanted: its pIC50
7.92

# input compound: CCOc1cc(-c2cc(NCCc3c(C)sc4c(C)cccc34)ncn2)ccc1C(=O)O [Example 60] ; wanted: its pIC50
8.15

# input compound: Cc1sc2c(C)ccc(F)c2c1CCNc1cc(-c2ccc(C(=O)O)c(OC3CCC3)c2)ncn1 [Example 136] ; wanted: its pIC50
7.89

----------
Task for the reader: assign each of the following compounds its reported IC50.
Biological target: EP2 receptor (Homo sapiens, UniProt P43116)
Construct: SF295 glioblastoma cells express high endogenous EP2 and no EP4
Sequence (P43116 whole entry): as above
Test: hEP2 cAMP assay (SF295 glioblastoma cells, HTRF cAMP, PGE2 stimulation)
Conditions: antagonistic activity
Write down the numeric answer in nM and omit the unit.

Under EP2 receptor (Homo sapiens, UniProt P43116): IC50 value of CCOc1cc(-c2cc(NCCc3c(C)oc4c(OC)cc(F)c(F)c34)ncn2)sc1C(=O)O [Example 31] ?
10

Under EP2 receptor (Homo sapiens, UniProt P43116): IC50 value of CCOc1cc(-c2cc(NCCc3c(C)sc4c(C)c(F)ccc34)ncn2)ccc1CC(=O)O [Example 112] ?
188

Under EP2 receptor (Homo sapiens, UniProt P43116): IC50 value of CCOc1cc(-c2cc(NCCc3c(C)oc4c(Cl)cccc34)ncn2)ccc1OCC(=O)O [Example 120] ?
59

Under EP2 receptor (Homo sapiens, UniProt P43116): IC50 value of CCOc1cc(-c2cc(NCCc3c(C)sc4c(C)ccc(Cl)c34)ncn2)sc1C(=O)O [Example 29] ?
14

----------
Task for the reader: assign each of the following compounds its reported log10 IC50.
Molecular target: EP4 receptor (Homo sapiens)
Construct: BT549 breast cancer cells, express high endogenous EP4 levels and very low EP2 levels
Sequence (P35408 whole entry): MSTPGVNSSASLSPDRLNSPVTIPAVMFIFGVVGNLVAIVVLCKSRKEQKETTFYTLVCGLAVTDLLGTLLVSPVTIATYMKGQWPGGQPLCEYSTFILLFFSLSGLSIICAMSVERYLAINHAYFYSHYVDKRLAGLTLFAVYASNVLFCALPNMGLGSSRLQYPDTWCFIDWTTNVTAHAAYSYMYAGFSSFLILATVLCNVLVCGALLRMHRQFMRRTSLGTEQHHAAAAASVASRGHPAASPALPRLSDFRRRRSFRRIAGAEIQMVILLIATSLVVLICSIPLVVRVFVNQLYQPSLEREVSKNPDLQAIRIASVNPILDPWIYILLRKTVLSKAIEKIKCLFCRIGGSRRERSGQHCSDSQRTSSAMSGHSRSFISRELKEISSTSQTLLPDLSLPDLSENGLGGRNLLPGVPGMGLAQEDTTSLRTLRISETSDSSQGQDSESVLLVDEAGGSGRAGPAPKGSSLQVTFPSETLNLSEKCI
Test: hEP4 cAMP assay (BT549 breast cancer cells, HTRF cAMP, PGE2 stimulation)
Conditions: antagonistic activity, PGE2 6 nM (EC80)
Procedure: The antagonistic activities of the compounds of formula (I) on the EP2 and EP4 receptors are also determined in accordance with the following experimental method. Human tumor cell lines expressing endogenously either EP4 or EP2 are used and cAMP accumulation in cells upon PGE2 stimulation is monitored. […] The obtained Delta F(fluorescence) values (665 nm/620 nM) are converted into % cAMP values using the measurements of the cAMP calibrator provided in the kit. […]
Short version: log10 scale, IC50, nM.

# input compound: CCOc1cc(-c2cc(NCCc3c(C#N)sc4c(C)cc(F)cc34)ncn2)sc1C(=O)O [Example 26] ; wanted: its log10 IC50
0.30

# input compound: COc1cc(Cl)cc2c(CCNc3cc(-c4ccc(C(=O)O)c(OC5CCC5)c4)ncn3)c(C)oc12 [Example 133] ; wanted: its log10 IC50
2.23

# input compound: COc1cccc2c(CCNc3cc(-c4ccc(C(=O)O)c(SC)c4)ncn3)c(C#N)sc12 [Example 13] ; wanted: its log10 IC50
1.43

# input compound: CCOc1cc(-c2cc(NCCc3csc4ccccc34)ncn2)sc1C(=O)O [Example 33] ; wanted: its log10 IC50
1.26

# input compound: Cc1sc2c(C)cccc2c1CCNc1cc(-c2ccc3c(C(=O)O)coc3c2)ncn1 [Example 76] ; wanted: its log10 IC50
2.72

# input compound: Cc1sc2c(C)cc(F)cc2c1CCNc1cc(-c2ccc(C(=O)O)c(OCC(C)C)c2)ncn1 [Example 184] ; wanted: its log10 IC50
2.74

# input compound: CCc1nc(-c2cc(NCCc3c(C)sc4c(C)cc(F)cc34)ncn2)sc1C(=O)O [Example 161] ; wanted: its log10 IC50
2.56

# input compound: Cc1sc2c(C)cccc2c1CCNc1cc(-c2ccc(C(=O)O)c(SC3COC3)c2)ncn1 [Example 131] ; wanted: its log10 IC50
2.80

# input compound: Cc1cc(-c2cc(NCCc3c(C)sc4c(C)cccc34)ncn2)sc1C(=O)O [Example 3] ; wanted: its log10 IC50
2.35

# input compound: Cc1cc(-c2cc(NCCc3c(C)oc4ccccc34)ncn2)sc1C(=O)O [Example 6] ; wanted: its log10 IC50
2.74

# input compound: CCOc1cc(-c2cc(NCCc3c(C)sc4c(C)cc(F)cc34)ncn2)sc1C(=O)NS(N)(=O)=O [Example 156] ; wanted: its log10 IC50
2.21

# input compound: CCOc1cc(-c2cc(NCCc3c(C)sc4c(C)ccc(Cl)c34)ncn2)ccc1C(=O)O [Example 66] ; wanted: its log10 IC50
2.78

# input compound: CCOc1cc(-c2cc(NCCc3c(C)sc4c(C)cc(F)cc34)ncn2)sc1C(=O)O [Example 32] ; wanted: its log10 IC50
1.11

# input compound: Cc1sc2ccccc2c1CCNc1cc(-c2ccc(C(=O)O)c(SC(C)C)c2)ncn1 [Example 91] ; wanted: its log10 IC50
2.73

# input compound: CCOc1cc(-c2cc(NCCc3c(C)sc4c(C)cc(F)cc34)ncn2)sc1CCC(=O)O [Example 97] ; wanted: its log10 IC50
2.02

# input compound: CCCCOc1cc(-c2cc(NCCc3c(C)sc4c(C)cc(F)cc34)ncn2)ccc1C(=O)O [Example 127] ; wanted: its log10 IC50
2.94

# input compound: COc1ccc(Cl)c2c(CCNc3cc(-c4ccc(C(=O)O)c(O)c4)ncn3)c(C)sc12 [Example 9] ; wanted: its log10 IC50
2.74

----------
Task for the reader: assign each of the following compounds its reported IC50.
Target: UniProtKB P35408
Assay: hEP4 b-arrestin assay (PathHunter HEK 293 PTGER4 b-arrestin cells)
Details: antagonistic activity, beta-arrestin assay; read-out: hEP4 b-arr IC50
Write down the numeric answer in nM and omit the unit.

# input compound: `CCOc1cc(-c2cc(NCCc3c(C)sc4c(C)c(F)ccc34)ncn2)ccc1C(=O)O` ; wanted: its IC50
499

# input compound: `Cc1sc2c(C)cc(F)cc2c1CCNc1cc(-c2ccc(C(=O)O)c(OC3CCC3)c2)ncn1` ; wanted: its IC50
269

# input compound: `Cc1sc2c(C)cc(F)cc2c1CCNc1cc(-c2cc3cccc(C(=O)O)c3[nH]2)ncn1` ; wanted: its IC50
908

# input compound: `COc1ccc(Cl)c2c(CCNc3cc(-c4cc(C)c(C(=O)O)s4)ncn3)c(C)sc12` ; wanted: its IC50
247
